- Test system: perception of guaiacol
- method: Preliminary screen of odorants with guaiacol (physical mixtures in air)
- Type: in vivo, human
reported-endpoint: interaction with guaiacol (perceived intensity)

* CCC(C)C(=O)OC (stereo not shown) [methyl-2-methylbutyrate, methyl 2-methylbutyrate] | promising effects
* CCOC(=O)C(C)CC (stereo not shown) [ethyl-2-methylbutyrate, Ethyl 2-methylbutyrate] | promising effects
